- MEASURED ON: human IL-1β (human, UniProt P01584 117-269)
- EXPERIMENTAL DETAILS: cell-based or functional assay
OBSERVATION TYPE: IL-1β IC50 (nM)
Write down the numeric answer in nM and omit the unit.

Record excerpt, results attached:
BINDER	IL-1β IC50 (nM)
ABT2-108-538x/ABT1-122-555 hu IgG1/K wt (bispecific antibody, V domains shown) VH: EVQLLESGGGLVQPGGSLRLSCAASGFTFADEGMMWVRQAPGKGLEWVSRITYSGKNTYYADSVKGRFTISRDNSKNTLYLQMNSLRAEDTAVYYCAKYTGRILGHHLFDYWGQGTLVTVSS VL: DIQMTQSPSSLSASVGDRVTITCRASQPIWTELNWYQQKPGKTPKLLIYGSSSLQSGVPSRFSGSGSGTDFTLTISSLQPEDFATYYCQQFAYFPATFGQGTKVEIKR	0.015
ABT2-108-538x/ABT1-95-A3 hu IgG1mut 234, 235/K (bispecific antibody, V domains shown) VH: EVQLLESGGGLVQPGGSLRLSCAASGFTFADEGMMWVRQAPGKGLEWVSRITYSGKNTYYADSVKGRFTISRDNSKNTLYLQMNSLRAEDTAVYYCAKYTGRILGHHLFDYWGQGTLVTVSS VL: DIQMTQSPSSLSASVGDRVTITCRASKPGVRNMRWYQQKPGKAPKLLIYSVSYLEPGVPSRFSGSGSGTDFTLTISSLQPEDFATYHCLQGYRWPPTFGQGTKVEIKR	0.035

Now let's try a different one.
Incoming: Consider the binder ABT2-108/ABT1-122-555 hu IgG1/K wt (bispecific antibody, V domains shown) VH: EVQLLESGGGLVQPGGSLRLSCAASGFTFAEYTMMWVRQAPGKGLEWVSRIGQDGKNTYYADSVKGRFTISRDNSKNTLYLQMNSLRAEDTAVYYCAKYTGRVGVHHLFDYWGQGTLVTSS VL: DIQMTQSPSSLSASVGDRVTITCRASQPIWTELNWYQQKPGKTPKLLIYGSSSLQSGVPSRFSGSGSGTDFTLTISSLQPEDFATYYCQQFAYFPATFGQGTKVEIKR and give its measured IL-1β IC50.
Outgoing: 7

FYI, the data here is from patent US20090291081A1.
